- TESTED ON: Cathepsin G (Homo sapiens)
- Sequence (P08311 whole entry): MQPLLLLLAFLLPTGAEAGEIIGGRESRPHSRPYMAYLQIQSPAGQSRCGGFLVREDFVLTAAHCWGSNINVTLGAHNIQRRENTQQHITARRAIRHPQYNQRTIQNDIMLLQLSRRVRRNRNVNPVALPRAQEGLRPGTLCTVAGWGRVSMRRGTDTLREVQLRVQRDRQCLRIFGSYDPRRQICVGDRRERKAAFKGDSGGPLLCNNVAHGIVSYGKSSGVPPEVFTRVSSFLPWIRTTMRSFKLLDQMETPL
The following compounds were reported with IC50 values on Cathepsin G (Homo sapiens) in different studies.
Answer with a number only, understood to be in µM.

In plain terms, `O=C(Nc1ccc(C(=O)Nc2ccc(C(=O)Nc3ccc(OS(=O)(=O)O)c4cc(OS(=O)(=O)O)cc(OS(=O)(=O)O)c34)cc2)cc1)Nc1ccc(C(=O)Nc2ccc(C(=O)Nc3ccc(OS(=O)(=O)O)c4cc(OS(=O)(=O)O)cc(OS(=O)(=O)O)c34)cc2)cc1` has a documented IC50 of 0.57

In plain terms, `COc1ccccc1C(=O)N[C@]1(OC)C(=O)N2C(C(=O)OCc3cccc(C)c3)=C(CSc3nncn3CC(=O)O)CO[C@@H]21` has a documented IC50 of 0.23

In plain terms, `CC[C@@H](NC(=O)N1CC(=O)NC[C@@H](Cc2cc(Cl)ccc2OC)C1=O)c1cccc(C(=O)O)c1` has a documented IC50 of 8

In plain terms, `O=C(O)CCCSc1nc2ccccc2n1Cc1cc(Cl)cc2c1CC(=O)N2` has a documented IC50 of 3.8

In plain terms, `COc1ccc(CCC(=O)N[C@@H](Cc2ccccc2)C(=O)CCl)cc1` has a documented IC50 of 9.3

In plain terms, `CCN1C(=O)N(CC)C1=O` has a documented IC50 of 0.74

In plain terms, `CC(C)(C)C(=O)Oc1cn(-c2ccccc2)c(CSc2nc3cc(C(=O)O)ccc3o2)cc1=O` has a documented IC50 of 19

In plain terms, O=C(c1ccc2ccccc2c1)C(c1cccc2ccccc12)P(=O)(O)O (configuration not stated) has a documented IC50 of 4.1

In plain terms, `COc1ccc(C(=O)N2C(=O)OC(C)(C)C2=O)cc1` has a documented IC50 of 14.2

In plain terms, `CC[C@@H](NC(=O)N1CC(=O)NC[C@@H](Cc2cc(Cl)ccc2OC)C1=O)c1ccc(C(=O)O)c(N)c1` has a documented IC50 of 16

In plain terms, `CC(C)C[C@H](NC(=O)[C@@H](NC(=O)c1cccc(-c2ccccc2)n1)[C@@H](C)O)B(O)O` has a documented IC50 of 0.0137

In plain terms, C=CC[C@H]1C(=O)O[C@H]2CCN(C(=O)OCC)C21 (some centres not stated) has a documented IC50 of 3.6

In plain terms, `CC(C)=CCC[C@]1(C)[C@@H](CC=C(C)C)C[C@]2(CC=C(C)C)C(=O)[C@@]1(CC=C(C)C)C(=O)C(C(=O)c1ccc(O)c(O)c1)=C2O` has a documented IC50 of 2.7

In plain terms, `CC1(C)OC(=O)N(Cc2ccccc2)C1=O` has a documented IC50 of 2.1

In plain terms, CCCC(CC(=O)O)n1c(=O)n(Cc2cc(Br)cc3c2CC(=O)N3)c2ccccc21 (configuration not stated) has a documented IC50 of 5.4
